// provenance: PubChem BioAssay (NCATS)

tested on: HIV-1 nucleocapsid protein NCp7 (binding to TG oligonucleotide); assay: HIV Nucleocapsid (AID 346); settings: HIV-1 NC / fluorescein-TGTGTGTG probe, fluorescence polarization;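 also: potency is for inhibitors that block NC binding and lower polarization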
Activity calls are given as the source filed them. No rule for the calls is given here.
Classes used: class 1 (active), class 0 (inactive)

* COc1cccc(Nc2ncc3nc(-c4ccc(F)cc4)c(=O)n(CCC#N)c3n2)c1 | class 0
* CCNc1ncc2nc(-c3ccc(OC)cc3)c(=O)n(CCC#N)c2n1 | class 0
* N#Cc1ccc(CN2CCC3(CC2)CCN(C(=O)c2cccc(F)c2)CC3)cc1 | class 0
* CCNc1ncc2nc(-c3ccc(OC)cc3)c(=O)n(Cc3cccc(OC)c3)c2n1 | class 1
* Cc1nc2cnc(N3CCN(C)CC3)nc2n(C2CC2)c1=O | class 0
* O=C(c1cc(C(F)(F)F)cc(C(F)(F)F)c1)N1CCC2(CCN(Cc3nccs3)CC2)CC1 | class 0
* Cc1nc2cnc(N3CCOCC3)nc2n(C)c1=O | class 0
* CNc1ncnc2ccc(-c3cccc(OC)c3)cc12 | class 0
* FC(F)(F)c1ccccc1-c1nccc(NCc2cccs2)n1 | class 0
* Cc1nc2cnc(N(C)C)nc2n(C[C@H]2CCCO2)c1=O | class 0
* COc1ccc(CNc2cc(-c3cccc(NS(C)(=O)=O)c3)ncn2)c(OC)c1 | class 0
* CN(C)C(=O)c1ccc(-c2nc(NC3CCNCC3)c3ccccc3n2)cc1 | class 0
* COc1ccc(CNc2ncnc3ccc(-c4ccccc4C#N)cc23)c(OC)c1 | class 0
* CN1CCN(c2ccnc(-c3cccc(NS(C)(=O)=O)c3)n2)CC1 | class 0
* COCCn1c(=O)c(-c2cc(F)cc(F)c2)nc2cnc(Oc3ccccc3)nc21 | class 0
* O=C(Oc1ccccc1)N1CCC2(CCCN(c3cccc(-c4ccccc4)c3)C2)CC1 | class 0
* COc1cccc(Nc2ncc3ncc(=O)n(CCC#N)c3n2)c1 | class 0
* CS(=O)(=O)N1CCC2(CCCN(Cc3ccc(C#N)cc3)C2)CC1 | class 0
* COc1ccccc1CCn1c(=O)c(-c2cn(C)c3ccccc23)nc2cncnc21 | class 0
* CN(C)c1ncc2nc(-c3cc(F)cc(F)c3)c(=O)n(Cc3ccc(F)cc3)c2n1 | class 0
* CC(=O)N1CCC2(CC1)CCN(C(=O)Nc1cccc(F)c1)CC2 | class 0
* COc1ccc(-n2c(=O)c(C)nc3cnc(Oc4cccc(Cl)c4)nc32)cc1 | class 0
